Exercise: for every item that follows, state its recorded tissue uptake at 24 h.
- Protocol description: Ex vivo biodistribution in PC-3 tumor-bearing mice
- Applied conditions: mouse, heart, Uptake in heart, 24 h post-injection
- Description: SPECT/CT imaging experiments were performed using an MILabs (Houten, The Netherlands) U-SPECT-II/CT scanner with a custom-made ultra-high-sensitivity big mouse collimator (2 mm pinhole size) following previously reported procedures. […] For ex vivo biodistribution studies, the mice were injected with ~2–6 MBq of the radioligand. […] Organs/tissues of interested were collected, weighed, and measured using an automatic gamma counter.
Numbered stars: 1 amine (or outer) side, 2 acyl side, 3 side chain; on linkers, the order of the positions; unused ones are H or OH. Square brackets hold non-standard residues; d marks the D form. Peptide text beside a SMILES is read from it. * marks the point of attachment. DOTA = O=C(O)CN1CCN(CC(=O)O)CCN(CC(=O)*)CCN(CC(=O)O)CC1; NMeH = CN[C@@H](Cc1c[nH]cn1)C(=O)O; X1 = O=C(CN1CCC(N[*:1])CC1)[*:2]; Tle = CC(C)(C)[C@H](N)C(=O)O; Thz = O=C(O)[C@@H]1CSCN1
Dear colleague, please return just the value in %ID/g, with no unit written.

Return reported tissue uptake at 24 h; argument: CC(C)C[C@@H](CN1CSC[C@H]1C(N)=O)NC(=O)[C@H](Cc1cnc[nH]1)NC(=O)CN(C)C(=O)[C@@H](NC(=O)[C@H](C)NC(=O)[C@H](Cc1c[nH]c2ccccc12)NC(=O)[C@H](CCC(N)=O)NC(=O)[C@@H](Cc1ccccc1)NC(=O)CN1CCC(NC(=O)CN2CCN(CC(=O)O)CCN(CC(=O)O)CCN(CC(=O)O)CC2)CC1)C(C)C [[^177Lu]Lu-TacsBOMB5, metal not drawn] 0.09

Next entry: CC(C)C[C@H](NC(=O)[C@H](Cc1cnc[nH]1)N(C)C(=O)CNC(=O)[C@@H](NC(=O)[C@H](C)NC(=O)[C@H](Cc1c[nH]c2ccccc12)NC(=O)[C@H](Cc1c[nH]cn1)NC(=O)[C@@H](Cc1ccccc1)NC(=O)CN1CCC(NC(=O)CN2CCN(CC(=O)O)CCN(CC(=O)O)CCN(CC(=O)O)CC2)CC1)C(C)(C)C)C(=O)N1CSC[C@H]1C(N)=O [[^177Lu]Lu-LW01142, metal not drawn] ({DOTA}-[X1][dF]HWA[Tle]G[NMeH]L[Thz]-NH2) 0.02

* * *

- Protocol description: Ex vivo biodistribution in PC-3 tumor-bearing mice
- Applied conditions: mouse, muscle, Uptake in muscle, 72 h post-injection
Numbered stars: 1 amine (or outer) side, 2 acyl side, 3 side chain; on linkers, the order of the positions; unused ones are H or OH. Square brackets hold non-standard residues; d marks the D form. Peptide text beside a SMILES is read from it. * marks the point of attachment. DOTA = O=C(O)CN1CCN(CC(=O)O)CCN(CC(=O)*)CCN(CC(=O)O)CC1; NMeH = CN[C@@H](Cc1c[nH]cn1)C(=O)O; X1 = O=C(CN1CCC(N[*:1])CC1)[*:2]; Tle = CC(C)(C)[C@H](N)C(=O)O; Thz = O=C(O)[C@@H]1CSCN1
Outcome measure: tissue uptake at 72 h (%ID/g)
Express your answer in %ID/g, writing the number without its unit.

Recorded tissue uptake at 72 h for CC(C)C[C@@H](CN1CSC[C@H]1C(N)=O)NC(=O)[C@H](Cc1cnc[nH]1)NC(=O)CN(C)C(=O)[C@@H](NC(=O)[C@H](C)NC(=O)[C@H](Cc1c[nH]c2ccccc12)NC(=O)[C@H](CCC(N)=O)NC(=O)[C@@H](Cc1ccccc1)NC(=O)CN1CCC(NC(=O)CN2CCN(CC(=O)O)CCN(CC(=O)O)CCN(CC(=O)O)CC2)CC1)C(C)C [[^177Lu]Lu-TacsBOMB5, metal not drawn] , please? 0.02

Moving on to the next compound: CC(C)C[C@H](NC(=O)[C@H](Cc1cnc[nH]1)N(C)C(=O)CNC(=O)[C@@H](NC(=O)[C@H](C)NC(=O)[C@H](Cc1c[nH]c2ccccc12)NC(=O)[C@H](Cc1c[nH]cn1)NC(=O)[C@@H](Cc1ccccc1)NC(=O)CN1CCC(NC(=O)CN2CCN(CC(=O)O)CCN(CC(=O)O)CCN(CC(=O)O)CC2)CC1)C(C)(C)C)C(=O)N1CSC[C@H]1C(N)=O [[^177Lu]Lu-LW01142, metal not drawn] ({DOTA}-[X1][dF]HWA[Tle]G[NMeH]L[Thz]-NH2) 0.01

Same again, this time with CC(C)C[C@H](NC(=O)[C@H](Cc1cnc[nH]1)N(C)C(=O)CNC(=O)[C@@H](NC(=O)[C@H](C)NC(=O)[C@H](Cc1c[nH]c2ccccc12)NC(=O)[C@H](CCC(N)=O)NC(=O)[C@@H](Cc1ccccc1)NC(=O)CN1CCC(NC(=O)CN2CCN(CC(=O)O)CCN(CC(=O)O)CCN(CC(=O)O)CC2)CC1)C(C)(C)C)C(=O)N1CSC[C@H]1C(N)=O [[^177Lu]Lu-LW01110, metal not drawn] 0.01
